I'd be grateful if you could share measured GFP response vs DMSO for these entries.
# ASSAY_TEXT: modulators of MEP2-GFP levels in yeast, primary screen, S. cerevisiae, multiplex flow cytometry (AID 1867);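 also: median GFP channel fluorescence of barcode-gated MEP2-GFP cells measured by flow cytometry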
# COND: S. cerevisiae MEP2-GFP strain, 3 h, at 10 µM, stronger effect = higher value, 100% means same as DMSO wells
Records with an inconclusive call do not appear.
Answer with a number only, understood to be in %.

GET /values?readout=GFP response vs DMSO&item= Cc1ccc2c(c1)OC(=O)CC2c1ccccc1 (stereo unspecified) 104

What do you have for CCOc1ccc(C(=O)/C=C/c2cc(OC)c(OC)c(OC)c2)cc1 ? 105

Also check CCOC(=O)c1ccc2[nH]c(C)c(CCC(C)=O)c(=O)c2c1 98.9

How about this molecule: COc1ccc(Cc2nc(-c3ccc(Br)cc3)no2)cc1 103

// same read-out, input: CO[C@@H]1O[C@@H]2COC(c3ccccc3)O[C@@H]2[C@@H](OC)[C@@H]1O (stereo partly specified) 104

Please answer likewise for CC1(C)NC(C(=O)O)Cc2c1[nH]c1ccccc21 (stereo unspecified) 106

###

# ASSAY_TEXT: inhibitors of CD8+ T cell-vesicle binding, pilot screen, LFA-1/ICAM-1 modulator project, MLPCN validation set, flow cytometry (AID 2523);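 also: mean PE anti-B7-1 fluorescence of CD8+ cells relative to row control; 100% = QL9-loaded vesicles with DMSO vehicle in the same plate row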
# COND: 2C mouse CD8+ T cells, at 7 µM, stronger effect = lower value
Peptide text beside a SMILES is read from it. * marks the point of attachment. Boc = CC(C)(C)OC(=O)*; OBn = c1ccc(CO*)cc1
The label is true (1) for vesicle binding response below 200% and false (0) for vesicle binding response equal to or exceeding 200%.

Record CC(C)CC(NC(=O)C(NC(=O)OC(C)(C)C)C(C)C)C(=O)NC(CCC(=O)OCc1ccccc1)C(N)=O (stereo not drawn) (Boc-Val-Leu-Glu(OBn)-NH2; configuration not given here) : is its vesicle binding response strictly below 200%? true (1)

Follow-up item: CCC12CN3CC(CC)(CN(C1)C31C(=O)N(C)c3ccc(C)cc31)C2=O (centres undefined) true (1)

What about this compound? CC(=O)OCC(OC(C)=O)C(OC(C)=O)C(OC(C)=O)C(=O)Nc1cccc(C)c1 (centres undefined) true (1)

Now consider O=C(NCc1ccccc1Cl)NC(=O)c1ccccc1 . false (0)

// query: CNCCC=C1c2ccccc2CCc2ccccc21 true (1)

Also COc1cc(/C=C/C(=O)N2CCCC2)cc(OC)c1OC , if possible. true (1)

Cool, now COc1ccc(C(=O)C2CCCCC2=O)cc1 (centres undefined) true (1)

Now try COc1ccc2nc(NC(=O)Nc3ccccc3)sc2c1 . true (1)

Try COCCn1c(/C=C/c2ccccc2)nc2ccccc21 next. true (1)

Here is the next compound: CCN(CC)CCN1C(=O)C(=O)/C(=C(/O)c2c(C)[nH]c(C(=O)OC)c2C)C1c1cccnc1 (centres undefined) false (0)

Thanks! And CC(CCc1ccccc1)NCC(O)c1ccc(O)c(C(N)=O)c1 (centres undefined) ? true (1)

One more compound: O=C(O)CC(O)C(=O)O (centres undefined) true (1)

Repeat for the following compound: COc1ccccc1C(=O)N=C1NC(=O)CC2C(=O)NCCN12 (centres undefined) false (0)

Input COc1ccc(-c2cc(=O)oc3c(C)c(O)c(CN(C)C)cc23)cc1 true (1)

Continue with COc1ccc(O)c(N)c1 false (0)

Same for CNCCCC12CCC(c3ccccc31)c1ccccc12 false (0)

How about this compound: CC1(C)Cc2ccccc2C(C(Cc2ccccc2)C(N)=O)=N1 (centres undefined) true (1)

Cool, now COc1ccc(C(=O)Nc2ccc(OC)c([N+](=O)[O-])c2)cc1Br true (1)

Also check CCOCc1cc(C)[nH]c(=O)c1C#N false (0)

Cool, now CC(=O)[C@@]1(O)CC[C@H]2[C@@H]3CCC4=CC(=O)CC[C@]4(C)[C@H]3CC[C@@]21C false (0)

Also COc1ccc(C(=O)/C=C2/c3ccccc3CC(C)(C)N2C)cc1 , if possible. true (1)

Do the same for CC(C)Cc1nc(NCCN2CCOCC2)c(C#N)c2c1COC(C)(C)C2 please true (1)

###

# ASSAY_TEXT: LAP4-GFP expression modulators in yeast, confirmation, cell-based, cherry picks, flow cytometry, mother/daughter gates (AID 2271);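 also: ratio of sample to DMSO plate mean so 100% equals DMSO level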
# COND: S. cerevisiae LAP4-GFP strain, 3 h, measured here: mother cell gate response, at 10 µM, stronger effect = higher value, 100 means same as DMSO control
Exercise: for every item that follows, state its recorded GFP response relative to DMSO.
Numeric answer only, unit % assumed.

Please look up its GFP response relative to DMSO: COc1ccc(-c2nnc(NC(=O)c3ccc(S(=O)(=O)N4COCC4(C)C)cc3)o2)cc1 97.4

Same again, this time with COc1cc(NC(=O)c2cccs2)ccc1NC(=O)c1cc2ccccc2o1 95.1

Same lookup for COC(=O)Cc1ccc(OCc2ccc(Cl)nc2)cc1 , please. 106

Do the same for N#C/C(=C\c1ccccn1)c1nc2ccccc2s1 please 589

Now give it for Cc1ccc(S(=O)(=O)Nc2cc(Cl)c(O)c3ncccc23)cc1 too. 126

Another: O=C(c1ccc([N+](=O)[O-])o1)N1CCN(c2nc3ccc(F)cc3s2)CC1 115

Do the same for CCOc1ccc(N2C(=O)CC(SCCN)C2=O)cc1 (stereo not given) please 97.2

Try this molecule too: Cc1ccccc1C(=O)Nc1cccc(C#N)c1 97.4

Would you mind doing CCC(C(=O)O)n1nc(-c2ccccc2)c2cc(Cl)ccc21 (stereo not given) as well? 99.5

Now this one: Cc1onc(-c2c(Cl)cccc2Cl)c1NC(=O)NNc1c(Cl)cncc1Cl 100

Next record, please: Cc1ccc(Nc2c(-c3ccccn3)nc3ccc(C)cn23)cc1 153

COc1cccc(/C=N\NC(=O)c2cc(OCC(F)(F)F)ccc2OCC(F)(F)F)c1 ? 92.9

Next: Cc1ccc(N2C(=O)C3C4C=CC(CNC(=S)Nc5ccc(F)cc5)(O4)C3C2=O)cc1 (stereo not given) 103

Next: O=C(O)Cc1sc(Nc2ccccc2)nc1-c1cccs1 156

Ok, now O=C(O)c1ccc2c3c(ncnc13)-c1ccccc1C2=O 134

Subsequent entry: Clc1ccc(N=c2ssnc2Cl)cc1 161

Now consider COC(=O)c1ccc(C(=O)NC(=S)Nc2ccc3nc(SC)sc3c2)cc1 and answer again. 91

Can you check CN(C)CCCNc1cc(C(C)(C)C)nc2c(-c3ccc(Cl)cc3)cnn12 next? 118

Lookup O=C(Nc1cccc(C(F)(F)F)c1)Oc1ccc(Cl)c2cccnc12 111

Likewise for O=C1ON=C(c2ccccc2)/C1=C\c1ccco1 ? 165

Query O=C1C=CC(=O)N1c1ccc(Sc2ccc([N+](=O)[O-])cc2)cc1 next 124

Same thing, different molecule: COC(=O)c1ccc2nc(Nc3nc4ccc(F)cc4s3)sc2c1 86

Same thing, different molecule: CCOC(=O)C1CCCN(c2nc3c(C)cccn3c(=O)c2/C=C(\C#N)C(=O)NCc2ccco2)C1 (stereo not given) 99.5

And for CC1CCCN(CCCNC(=O)C2CCN(S(=O)(=O)N3CCC4(CC3)OCCO4)CC2)C1 (stereo not given) ? 96.1

Try Cc1ccc(C2=NOC(=O)/C2=C\c2ccc(C)o2)cc1 next. 224

Likewise for Cc1cc(/C=C2/SC(=S)N(c3cccc(Cl)c3)C2=O)c(C)n1-c1cccnc1 ? 136

Now try COC(=O)NC1CCC(CC2CCC(NC(=O)OC)CC2)CC1 (stereo not given) . 92.9

Now consider Cc1cccn2c(=O)c(/C=C(\C#N)C(=O)NC3CCS(=O)(=O)C3)c(N3CCC(C)CC3)nc12 (stereo not given) and answer again. 95.2

Same question for Cn1cc(/C=C/c2cc[n+](C)cc2)c2cc(Cl)ccc21 please. 110

Now this one: COC(=O)Cn1cc(/C=C/c2cc[n+](C)cc2)c2ccccc21 98.4

Try this molecule next: Cc1cc(NCCCN2CCOCC2)n2nc(C)c(-c3ccccc3)c2n1 100

Ok, now CCOc1ccccc1-c1noc(CCC(=O)Nc2cccnc2)n1 110

Try the molecule O=C(NCC(=O)N1CCCC1)c1cccs1 98.3

Try O=C(NCc1ccc2c(c1)OCO2)c1nc(S(=O)(=O)Cc2ccccc2)ncc1Cl next. 109

CC(=O)Nc1ccc(NC(=O)c2nc(S(=O)(=O)Cc3ccccc3)ncc2Cl)cc1 ? 105

Now give it for CN(C(=O)c1ccccc1Cl)c1ccccc1 too. 93.4

Queued: Nc1nc2c(ncn2COCCO)c(=O)[nH]1 100

// next record Cc1ccc(Cl)cc1N1CCN(C(=O)CSc2ccsc2[N+](=O)[O-])CC1 96.2

How about O=C(N/N=C/c1ccccc1Cl)c1cccc(F)c1 ? 104

Same question, Cc1ccccc1N1C(=O)CC(Sc2nnc(-c3ccccc3)o2)C1=O (stereo not given) this time 103

Now try COc1cc(-c2noc(-c3cccc(Cl)c3)n2)cc(OC)c1OC . 91.3

Now this one: CC(=O)[C@@]1(O)CC[C@H]2[C@@H]3CCC4=CC(=O)CC[C@]4(C)[C@H]3CC[C@@]21C 97.2

Here is the next molecule: O=C1C=CC(=O)N1c1cccc(-c2ccccc2)c1 191

Same thing, different molecule: CC(C)Cn1c(=O)c(C(=O)Nc2ccncc2)c(O)c2ccccc21 155

Again, but for CCOC(=O)Cn1cc(/C=C/[N+](=O)[O-])c2ccccc21 157
